Target: TGFBIp611-633 G623R peptide (Homo sapiens, UniProt Q15582, G623R)
Construct: The 23-amino acid long peptide (TGFBIp 611-633 c.623 G>R) from the 4th FAS1 domain; purchased Synpeptide Co Ltd, Shanghai, China; host or cells: synthetic peptide
Sequence (Q15582 611-633 G623R limits assumed): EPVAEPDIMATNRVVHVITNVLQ
Experiment: Circular Dichroism assay (θ[218]), inhibition of amyloid fibrillation
Format: biochemical
Conditions: 200 mM, 48 h; read-out: % Inhibition (mean ± SD) n = 3, θ[218] circular dichroism
measurement.label: inhibition at 200000 µM

NCCS(=O)(=O)O [Taurine, taurine]: ~54%

Task item: I am curious: what inhibition at 200000 µM value has been reported for C[N+](C)(C)CC(=O)O [Betaine, betaine] ?
Reply: 19%

Task item: Try this compound too: CNCC(=O)O [Sarcosine, sarcosine]
Reply: ~43%

Task item: Would you mind doing OC[C@H]1O[C@H](OC[C@H]2O[C@H](O[C@]3(CO)O[C@H](CO)[C@@H](O)[C@@H]3O)[C@H](O)[C@@H](O)[C@@H]2O)[C@H](O)[C@@H](O)[C@H]1O [Raffinose, raffinose] as well?
Reply: 23%

* * *

Target: preformed amyloid fibrils from TGFBIp611-633 G623R peptide (Homo sapiens, UniProt Q15582, G623R)
Construct: The 23-amino acid long peptide (TGFBIp 611-633 c.623 G>R) from the 4th FAS1 domain; purchased Synpeptide Co Ltd, Shanghai, China; host or cells: synthetic peptide
Test: ThT fluorescence assay, dissolution of preformed amyloid fibrils
Format: biochemical
Settings: 200 mM, 48 h, preformed fibrils; read-out: % Inhibition (mean ± SD) n = 3, dissolution of amyloid fibrils, ThT fluorescence
measurement.label: inhibition at 200000 µM (%)
Just the number in %, nothing appended.

Example entries and their recorded answers appear below.
C[N+](C)(C)CC(=O)O: 34
OC[C@H]1O[C@H](OC[C@H]2O[C@H](O[C@]3(CO)O[C@H](CO)[C@@H](O)[C@@H]3O)[C@H](O)[C@@H](O)[C@@H]2O)[C@H](O)[C@@H](O)[C@H]1O: 48
NCCS(=O)(=O)O: 52

# evaluate next
Task item: Record request: inhibition at 200000 µM value, item "CNCC(=O)O"
Reply: 47

* * *

inhibition at 200000 µM for assorted compounds
Target: TGFBIp611-633 G623R peptide (Homo sapiens, UniProt Q15582, G623R)
Construct: The 23-amino acid long peptide (TGFBIp 611-633 c.623 G>R) from the 4th FAS1 domain; purchased Synpeptide Co Ltd, Shanghai, China; host or cells: synthetic peptide
Assay: ThT fluorescence assay, inhibition of amyloid fibrillation
Format: biochemical
Settings: 200 mM, 24 h; read-out: % Inhibition (mean ± SD) n = 3, ThT fluorescence
Report the figure in % without appending any unit label.

For orientation, consider the following solved cases.
OC[C@H]1O[C@H](OC[C@H]2O[C@H](O[C@]3(CO)O[C@H](CO)[C@@H](O)[C@@H]3O)[C@H](O)[C@@H](O)[C@@H]2O)[C@H](O)[C@@H](O)[C@H]1O: 21
C[N+](C)(C)CC(=O)O: 16
CNCC(=O)O: 20

For the next question, use this compound.
Task item: Can you look up the measured inhibition at 200000 µM of "NCCS(=O)(=O)O" for me?
Reply: 20
